Every entry's value here was drawn from patent US20210263122A1.

Test: Chemical exchange rate (kex) of amide protons from 1H-NMR linewidth
Assay type: physicochemical
Conditions: pH 6.7, 310K
property_name: Kex (s⁻¹)

CC(=O)N(CC(O)CO)c1c(I)c(C(=O)NCC(O)CO)c(I)c(C(=O)NCC(O)CO)c1I (stereo not shown) [Iohexol]: 372

1: CC(=O)N(CC(O)CN(C(C)=O)c1c(I)c(C(=O)NCC(O)CO)c(I)c(C(=O)NCC(O)CO)c1I)c1c(I)c(C(=O)NCC(O)CO)c(I)c(C(=O)NCC(O)CO)c1I (stereo not shown)
2: CN(C(=O)CO)c1c(I)c(C(=O)NCC(O)CO)c(I)c(C(=O)NCC(O)CO)c1I (stereo not shown)
3: O=C(NCC(O)CO)c1c(I)c(C(=O)NCC(O)CO)c(I)c(N(CCO)C(=O)CO)c1I (stereo not shown)
# desc sort on Kex across 3 compounds Give your ranking as a list of the labels in the requested order.
2, 3, 1
